// note: IC50 values for Poly [ADP-ribose] polymerase tankyrase-1 (Homo sapiens, UniProt O95271) were reported in different studies
endpoint name: IC50 (nM)

Prompt: Entry COc1ccccc1N1CCN(c2nc3c(c(=O)[nH]2)CNCC3)CC1 : reported IC50 = ?
Completion: 7780

Prompt: Consider next the compound COc1ccccc1N1CCN(c2nc3c(c(=O)[nH]2)C[S+]([O-])CC3)CC1 (centres undefined) in the same way.
Completion: 6170

Prompt: Repeat for the following compound: N#Cc1c(Cn2c(=O)n(C[C@H]3CC[C@H](C(=O)Nc4ccncc4)CC3)c(=O)c3c(Cl)cccc32)cccc1C(F)(F)F
Completion: 3.2

Prompt: CC(C)(C)OC(=O)N1CCC2(CC1)CCN(C(=O)c1cc(Cc3n[nH]c(=O)c4ccccc34)ccc1F)C2 , same question.
Completion: 3000

Prompt: What would you report for CC(C)CC(=O)Nc1nnc2n1CCS2 ?
Completion: 395

Prompt: Repeat for the following compound: O=C(OCc1ccccc1)N1CCN(CCSc2nc3ccccc3c(=O)[nH]2)CC1
Completion: 398

Prompt: Now consider COc1ccccc1N1CCN(c2nc3c(c(=O)[nH]2)COCC3)CC1 .
Completion: 67.6

Prompt: And the next one, COc1ccc(-c2cc3c(c(=O)[nH]2)CCCN3C)cc1 ?
Completion: 1.1

(1) O=C(CCc1ccccc1Cl)Nc1nnc2n1CCS2
(2) COc1ccc(C2(CNC(=O)c3ccc(NC(=O)c4ccc(C)o4)cc3)CCOCC2)cc1
Prompt: Short answer wanted: higher IC50, 1 or 2 ? Please identify the chosen entry by its label.
Completion: 2
(2: 690 nM, 1: 14 nM)
